B1: tRNA (parent)
chain: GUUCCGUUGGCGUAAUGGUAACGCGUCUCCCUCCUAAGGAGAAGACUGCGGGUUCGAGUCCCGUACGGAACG

- Variants of: B1
- measurementProtocol: yeast fitness relative to wild type (ratio to wild type); higher = fitter; tRNA-Arg(CCU), competitive growth, 37 C, YPD
Variants at the floor of the assay were thinned out.
For each entry below, report its yeast fitness value.

Record excerpt, results attached:
Read the entry G9C G10C U47A G68C and write its reported yeast fitness.
≤ 0.5

For C29A C30U A42U , write its yeast fitness.
≤ 0.5

Hi team, please reply with yeast fitness for each item in this list.
1. U2G G10C A70C
2. G9A A42U U59A G67C
3. C4A G56U
4. C11A A70U

1: ≤ 0.5; 2: ≤ 0.5; 3: 0.786; 4: 0.581

Report yeast fitness for every entry below.
1. C4U A57U C61U
2. C5U G6A C66U
3. U16A U47C
4. A14G C24A
5. C4G G10A C30G A43G A57U
6. C22U C30U C33U A45C C66U
7. G6A A21C U28A C62U

1: 0.605; 2: 0.975; 3: 1.01; 4: 0.666; 5: ≤ 0.5; 6: ≤ 0.5; 7: ≤ 0.5
